Molecular target: T1, recombinant human CD73 protein (ecto-5'-nucleotidase), expressed by the applicant, C-terminal 6x His tag (human, UniProt P21589 27-547)
T1 sequence: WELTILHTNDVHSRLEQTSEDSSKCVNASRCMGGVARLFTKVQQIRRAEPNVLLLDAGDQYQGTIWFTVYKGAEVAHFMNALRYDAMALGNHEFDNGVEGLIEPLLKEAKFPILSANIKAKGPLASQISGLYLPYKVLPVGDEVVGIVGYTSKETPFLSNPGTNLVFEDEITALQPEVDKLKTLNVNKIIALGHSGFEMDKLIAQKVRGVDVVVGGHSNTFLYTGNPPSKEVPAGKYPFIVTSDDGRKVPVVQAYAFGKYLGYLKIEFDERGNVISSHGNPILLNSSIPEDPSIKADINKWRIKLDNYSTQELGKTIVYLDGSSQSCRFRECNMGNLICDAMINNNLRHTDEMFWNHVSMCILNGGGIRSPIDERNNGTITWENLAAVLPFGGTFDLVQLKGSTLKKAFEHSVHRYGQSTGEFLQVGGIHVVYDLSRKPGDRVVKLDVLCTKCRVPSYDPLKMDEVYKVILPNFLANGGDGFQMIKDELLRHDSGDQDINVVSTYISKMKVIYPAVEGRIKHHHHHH
Assay: SPR, Biacore T200, antibody captured by anti-mouse Fc IgG, human CD73 injected, 25 °C, 1:1 fit
quantityKind: kon (M⁻¹ s⁻¹)
One number for each entry, in M⁻¹ s⁻¹.

1) anti-CD73 monoclonal antibody 06-6 (antibody, V domains shown, Mouse hybridoma antibody of the IgG type, purified from ascitic fluid) VH: QVQLQQSGPELVKPGASVRISCKASGYTFADYFMHWVRLRPGQGLEWIGWIYPGYVNIKYNEKFKGKATLTADKSSSTAYMQLSSLTSEDSAVYFCARGEDYDSAMDYWGQGTSVTVSS VL: GVVMTQTPLSLPVSLGDQASISCRSSQSLVHSNGNTYLHWYLQKPGQSPKLLIYKVSNRFSGVPDRFSGSGSGTDFTLKISRVEAEDLGVYFCSQSTHVPPWTFGGGTKLEIK    242000
2) anti-CD73 monoclonal antibody F2-2 (antibody, V domains shown, Mouse hybridoma antibody of the IgG type, purified from ascitic fluid) VH: VQLQESGPGLVKPSQSLSLTCTVTGHSITSDYVWNWIRQFPGNKLEWMGYISYSGIIKYNPSLKSRISITRDTSKNQFFLQLNSVTTEDTATYYCAGDEYFWFAYWGQGTTVTVSS VL: DIQMTQSPSSMYASLGERVTITCKASQDIKSYLSWYQQKPWKSPKTLIYYATNLADGVPSRFSGSGSGQDYSLTISSLESDDTATYYCLQHGESPYTFGGGTKLEIK    538000
3) anti-CD73 monoclonal antibody 81-2-2 (antibody, V domains shown, Mouse hybridoma antibody of the IgG type, purified from ascitic fluid) VH: QVQLQQPGAELVKPGASVKLSCKASGYTFTSYWMHWVKQRPGQGLEWIGEINPSNGRTNYNEKFKSKATLTVDKSSSTAYMQLSSLTSEDSAVYYCARRGTSGNFFDYWGQGTTLTVSS VL: DIKMTQSPSSMYASLGERVTITCKASQDINTYLSWFQQKPGKSPKTLIYRANRLVDGVPSRFSGSGSGQDYSLTISSLEYEDMGIYYCLQFDEFPYTFGGGTKLEIK    212000

Next up:
kon reading for anti-CD73 monoclonal antibody E1-B6 (antibody, V domains shown, Mouse hybridoma antibody of the IgG type, purified from ascitic fluid) VH: VKLQESGAELARPGASVKLSCKASGYTFTDYYINWVKQRTGQGLEWIGETYPGNGNTYYHEKFKGKATLTADRSSSTAYMQLSSLTSEDSAVYFCARGTYYGSSEYFDYWGQGTTVTVSS VL: DIVMTQSPKFMSTSVGDRVSITCKASQNVGTAVAWYQQRPGQSPKLLIYSASNRNTGVPDRFTGSGSGTDFTLTISNMQSEDLADYFCQQYSSYIFTFGSGTKLEIN : 476000
